Source of measurements: patent US8642297B2

Entries annotated with measured Relative reaction rate, Recombinant MDH
Molecular target: Recombinant MDH (Apium graveolens, UniProt Q38707, C47S/T120I)
Construct: made in house; host or cells: E. coli BL21 (pTTQ18 plasmid, tac promoter)
Sequence (Q38707 whole entry C47S/T120I): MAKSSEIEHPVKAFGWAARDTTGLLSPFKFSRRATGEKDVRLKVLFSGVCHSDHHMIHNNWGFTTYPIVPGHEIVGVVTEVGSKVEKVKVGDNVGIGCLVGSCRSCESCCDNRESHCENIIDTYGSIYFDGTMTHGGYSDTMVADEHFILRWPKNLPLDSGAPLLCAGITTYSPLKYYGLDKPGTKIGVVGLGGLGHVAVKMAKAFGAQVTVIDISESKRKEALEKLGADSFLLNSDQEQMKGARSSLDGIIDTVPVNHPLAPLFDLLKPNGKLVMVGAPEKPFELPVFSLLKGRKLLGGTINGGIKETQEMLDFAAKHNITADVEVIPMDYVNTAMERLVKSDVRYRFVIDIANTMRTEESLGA
Assay: Relative reaction rates of substrates with recombinantly expressed MDH (NADH formation measured spectrophotometrically)
Assay type: biochemical
Conditions: relative to D-mannitol = 100%; MDH expressed in E. coli
OUTCOME MEASURE: Relative reaction rate, Recombinant MDH (%)

given_smiles=OC[C@@H](O)[C@@H](O)[C@H](O)[C@H](O)CO outcome_measure="Relative reaction rate, Recombinant MDH" observed_measurement=100
given_smiles=OC[C@@H](O)[C@@H](O)CO outcome_measure="Relative reaction rate, Recombinant MDH" observed_measurement=4
given_smiles=OC[C@@H](O)C(O)[C@H](O)CO outcome_measure="Relative reaction rate, Recombinant MDH" observed_measurement=33
given_smiles=C[C@H](O)[C@@H](O)[C@@H](O)[C@H](O)CO outcome_measure="Relative reaction rate, Recombinant MDH" observed_measurement=10.5
given_smiles=OC[C@@H](O)[C@@H](O)[C@H](O)[C@@H](O)CO outcome_measure="Relative reaction rate, Recombinant MDH" observed_measurement=5
given_smiles=OC[C@@H](O)[C@H](O)[C@@H](O)CO outcome_measure="Relative reaction rate, Recombinant MDH" observed_measurement=1
given_smiles=OC[C@@H](O)[C@@H](O)[C@@H](O)CO outcome_measure="Relative reaction rate, Recombinant MDH" observed_measurement=50
